Data origin, for the record: paper PMC6770189

Substrate: [H][C@]12SCC(COC(C)=O)=C(C(=O)O)N1C(=O)[C@H]2NC(=O)CCC[C@@H](N)C(=O)O
Assay protocol: CPC consumption by HPLC, initial rates
Type: biochemical, Trigonopsis variabilis
Assay conditions: 0.1 M potassium phosphate pH 8.0, 30 °C, air saturated
Metric: Km (mM)
Only the number, expressed in mM, is required.

Solved entries (count: 3):
TvDAAO (Trigonopsis variabilis; C108F/E32R/F33D/F54S/M156L) (protein, FAD-containing; no tag mentioned) MAKIVVIGAGVAGLTTALQLLRKGHEVTIVSRDTPGDLSIGYTSPWAGANWLTSYDGGKLADYDAVSYPILRELARSSPEAGIRLISQRSHVLKRDLPKLEVAMSAIFQRNPWFKNTVDSFEIIEDRSRIVHDDVAYLVEFRSVCIHTGVYLNWLLSQCLSLGATVVKRRVNHIKDANLLHSSGSRPDVIVNCSGLFARFLGGVEDKKMYPIRGQVVLVRNSLPFMASFSSTPEKENEDEALYIMTRFDGTSIIGGCFQPNNWSSEPDPSLTHRILSRALDRFPELTKDGPLDIVRECVGHRPGREGGPRVELEKIPGVGFVVHNYGAAGAGYQSSYGMADEAVSYVERALTRPNL; 1.6
TvDAAO (Trigonopsis variabilis; C108F/E32R/F33D) (protein, FAD-containing; no tag mentioned) MAKIVVIGAGVAGLTTALQLLRKGHEVTIVSRDTPGDLSIGYTSPWAGANWLTFYDGGKLADYDAVSYPILRELARSSPEAGIRLISQRSHVLKRDLPKLEVAMSAIFQRNPWFKNTVDSFEIIEDRSRIVHDDVAYLVEFRSVCIHTGVYLNWLMSQCLSLGATVVKRRVNHIKDANLLHSSGSRPDVIVNCSGLFARFLGGVEDKKMYPIRGQVVLVRNSLPFMASFSSTPEKENEDEALYIMTRFDGTSIIGGCFQPNNWSSEPDPSLTHRILSRALDRFPELTKDGPLDIVRECVGHRPGREGGPRVELEKIPGVGFVVHNYGAAGAGYQSSYGMADEAVSYVERALTRPNL; 1.15
TvDAAO (Trigonopsis variabilis; C108F/C298N/E32R/F33D/F54S/M156L) (protein, FAD-containing; no tag mentioned) MAKIVVIGAGVAGLTTALQLLRKGHEVTIVSRDTPGDLSIGYTSPWAGANWLTSYDGGKLADYDAVSYPILRELARSSPEAGIRLISQRSHVLKRDLPKLEVAMSAIFQRNPWFKNTVDSFEIIEDRSRIVHDDVAYLVEFRSVCIHTGVYLNWLLSQCLSLGATVVKRRVNHIKDANLLHSSGSRPDVIVNCSGLFARFLGGVEDKKMYPIRGQVVLVRNSLPFMASFSSTPEKENEDEALYIMTRFDGTSIIGGCFQPNNWSSEPDPSLTHRILSRALDRFPELTKDGPLDIVRENVGHRPGREGGPRVELEKIPGVGFVVHNYGAAGAGYQSSYGMADEAVSYVERALTRPNL; 2.9

Proceeding to the next protein to report its Km.
Query block: Would you mind telling me what Km value was observed for TvDAAO (Trigonopsis variabilis; C108F/F54S/M156L) (protein, FAD-containing; no tag mentioned) MAKIVVIGAGVAGLTTALQLLRKGHEVTIVSEFTPGDLSIGYTSPWAGANWLTSYDGGKLADYDAVSYPILRELARSSPEAGIRLISQRSHVLKRDLPKLEVAMSAIFQRNPWFKNTVDSFEIIEDRSRIVHDDVAYLVEFRSVCIHTGVYLNWLLSQCLSLGATVVKRRVNHIKDANLLHSSGSRPDVIVNCSGLFARFLGGVEDKKMYPIRGQVVLVRNSLPFMASFSSTPEKENEDEALYIMTRFDGTSIIGGCFQPNNWSSEPDPSLTHRILSRALDRFPELTKDGPLDIVRECVGHRPGREGGPRVELEKIPGVGFVVHNYGAAGAGYQSSYGMADEAVSYVERALTRPNL ?
Result block: 1.9
